A collection of variants and their measured self-cleavage kobs at 640 uM GlcN6P
B1: glmS ribozyme (parent)
chain: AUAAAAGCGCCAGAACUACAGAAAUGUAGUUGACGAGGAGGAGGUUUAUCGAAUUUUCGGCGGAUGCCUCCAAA

# Variants of: B1
# Experimental protocol: self-cleavage kobs at 640 uM GlcN6P; higher = faster cleavage; RNA array
# Assay setup: with glucosamine-6-phosphate
Fewer inactive variants are shown than the library holds.

1. AUAAAAGCGCCAGAACUACAGAAAUGUAGCUGACGAGGAGGAGGUUUAUCGAUUUUGCGGCGGCUGCCGCCAAA [U30C A53U U57G A64C U69G]	0.000129 s⁻¹

### Prompt Tell us which self-cleavage kobs at 640 uM GlcN6P value is on record for AUAAAAGCGCCAGAGCUACAGAAAUGUAGUUGACGAGGAGGAGGUUUAUCCAAUUUUCGGCGGAUGCCUCCAAA [A15G G51C]
### Response < 1e-05 s⁻¹

### Prompt Report self-cleavage kobs at 640 uM GlcN6P for AUAAAACCGCCAGAACUACAGAAAUGUAGUUGAUGAGGAGGAGGUUUAUCGAAUUUUCGGCGGAUGCCUCCAAA [G7C C34U]
### Response < 1e-05 s⁻¹

### Prompt Could you please provide reported self-cleavage kobs at 640 uM GlcN6P for AUAAAAGCGCCAGAACUACAGAAAUGUAGUUGACAAGGAGGAGGUUUACCGAAUUUUCGGCGGAUGCCUCCAAA [G35A U49C] ? Thanks!
### Response < 1e-05 s⁻¹

### Prompt State its self-cleavage kobs at 640 uM GlcN6P: AUAAAAGCGCCAGAACUACAGAAAUGUAGUUGACGAGGAGGAGGUUUAUUGUAUUUUCGGCGGAUGCCUCCAAA [C50U A52U]
### Response < 1e-05 s⁻¹

### Prompt For the variant AUAAAAGCGCCAGAACUACAGAAAUGUAGUUGACCAGAAGGAGGUUUAUCGAAUUUUCGGCGGAUGCCUCCAAA [G35C G38A] , report self-cleavage kobs at 640 uM GlcN6P.
### Response < 1e-05 s⁻¹

### Prompt Answer with reported self-cleavage kobs at 640 uM GlcN6P of AUAAAAGCGCCAGAACUACAGAAAUGUAGUCGACGAGGAGGAGGUUUAGCGAAUUUUCGGCGGAUGCCUCCAAA [U31C U49G]
### Response 2.25e-05 s⁻¹

### Prompt Quick one: give measured self-cleavage kobs at 640 uM GlcN6P for AUAAAAGCGCCAGUACUACAGAAAUGUAGUUGACGAGGAGGAGGACUAUCGAAUUUUCGGCGGAUGCCUCCAAA [A14U U45A U46C]
### Response 0.00108 s⁻¹

Data origin, for the record: the supplement of paper PMC7125110
